assayedTarget: HCV NS3 helicase NS3h_1b(con1) (Hepatitis C virus genotype 1b, UniProt Q9WMX2)
Construct: truncated C-terminally His-tagged NS3 proteins lacking the N-terminal protease, called NS3h; His-tag (C); made in house
Sequence (Q9WMX2 1192-1657): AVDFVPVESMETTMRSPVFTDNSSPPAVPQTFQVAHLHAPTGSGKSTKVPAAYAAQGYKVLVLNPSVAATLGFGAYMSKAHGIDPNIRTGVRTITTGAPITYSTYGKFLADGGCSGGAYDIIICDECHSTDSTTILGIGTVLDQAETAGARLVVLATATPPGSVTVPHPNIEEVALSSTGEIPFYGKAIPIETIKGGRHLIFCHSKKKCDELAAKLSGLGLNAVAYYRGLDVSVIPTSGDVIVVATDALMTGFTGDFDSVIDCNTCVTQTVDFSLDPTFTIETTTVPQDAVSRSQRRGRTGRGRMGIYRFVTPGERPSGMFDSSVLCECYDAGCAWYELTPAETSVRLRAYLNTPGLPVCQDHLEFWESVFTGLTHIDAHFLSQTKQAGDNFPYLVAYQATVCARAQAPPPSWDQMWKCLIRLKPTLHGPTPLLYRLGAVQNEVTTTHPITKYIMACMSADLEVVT
testSummary: MBHA screen of NCI mechanistic set library at 20 μM (percent inhibition, compound interference)
Assay type: biochemical
testSettings: compounds at 20 μM; assay interference calculated with Equation 2 (fluorescence vs DMSO-only controls before ATP)
endpoint: Int.* (Ratio) (Interference)
Put down the number, then write its unit next to it.

See these solved cases before continuing.
CCN(CC)CCOc1ccc(C(O)(Cc2ccc(OC)cc2)c2ccccc2)cc1 (stereo not drawn): 1.05 Ratio
N[C@H](C(=O)O)[C@H]1ON=C(Cl)[C@H]1O: 1.02 Ratio

API: the following record is the query input.
Supply measured Int.* (Ratio) (Interference) of COC(=O)NC1C(C)OC(OC2C/C=C(\C)C3C=C[C@H]4C(OC5CC(OC6CCC(OC7CC(O)C(OC8CCC(O)C(C)O8)C(C)O7)C(C)O6)C(OC(C)=O)C(C)O5)C(C)CC(C)[C@@H]4[C@@]3(C)C([O-])=C3C(=O)OC4(CC(C=O)=CC(O)[C@@H]4/C=C\2C)C3=O)CC1(C)[N+](=O)[O-].[Na+] (stereo partly drawn) in your reply.
0.95 Ratio

###

assayedTarget: HCV NS3 helicase NS3h_1b(con1) (Hepatitis C virus genotype 1b, UniProt Q9WMX2)
Construct: truncated C-terminally His-tagged NS3 proteins lacking the N-terminal protease, called NS3h; His-tag (C); made in house
testSummary: MBHA screen of NCI mechanistic set library at 20 μM (percent inhibition, compound interference)
Assay type: biochemical
testSettings: compounds at 20 μM, MBHA with DNA substrate; calculated from Equation 1
Experimental: All molecular beacon-based helicase assays (MBHAs) were performed according to known methods (Belon & Frick (2008) supra; Belon & Frick (2009) supra). […] Fluorescence was read before ATP (F0) addition and 30 minutes after ATP was added to 1 mM (F30) using a Tecan Infinite M200 fluorescence microplate reader with excitation and emission wavelengths set to 643 and 670 nm, respectively. […]
Entry flag: yes (1) if Inh. (%) (Inhibition) reaches -10%; no (0) if it does not.

For orientation, consider the following solved cases.
CN1C(Cl)=NS(=O)(=O)c2ccccc21 [Compound 373853]: yes (1)
C=CCOC1OC(CO[Si](C)(C)C(C)(C)C)C(OCc2ccccc2)C(OCc2ccccc2)C1OCc1ccccc1 (centres unmarked) [Compound 624953]: yes (1)

Record COc1cc2c(c(O)c1OC)-c1c(cc(OC)c(OC)c1OC)C[C@@H](C)[C@@H](C)C2 [Compound 330515] ; criterion: Inh. (%) (Inhibition) no lower than -10%. Met?
yes (1)

Record CC1=CC(=C(c2ccc(N)cc2)c2ccc(N)cc2)C=CC1=N.Cl [Compound 93739] ; criterion: Inh. (%) (Inhibition) no lower than -10%. Met?
no (0)

###

assayedTarget: HCV NS3 helicase NS3h_1b(con1) (Hepatitis C virus genotype 1b)
Construct: truncated C-terminally His-tagged NS3 proteins lacking the N-terminal protease, called NS3h; His-tag (C); made in house
testSummary: biochemical
Assay type: biochemical, hepatitis C virus genotype 1b(con1)
testSettings: MBHA, DNA unwinding; mean ± SD of three titrations; read-out: Helicase IC50
endpoint: IC50 (µM)
Answers are plain numbers, in µM.

See these solved cases before continuing.
Cc1ccc2nc(-c3ccc4nc(-c5ccc(NC(=O)c6ccc(Br)cc6)cc5)sc4c3)sc2c1S(=O)(=O)O: 5.2
COC(=O)c1ccc(C(=O)Nc2ccc(-c3nc4ccc(-c5nc6ccc(C)c(S(=O)(=O)O)c6s5)cc4s3)cc2)cc1: 9.7
Cc1ccc2nc(-c3ccc4nc(-c5ccc(NC(=O)c6cc(C(F)(F)F)ccc6F)cc5)sc4c3)sc2c1S(=O)(=O)O: 6.4

# per-item lookup of IC50; items listed below
1. Cc1ccc2nc(-c3ccc4nc(-c5ccc(NC(=O)c6cccc(Cl)c6)cc5)sc4c3)sc2c1S(=O)(=O)O
2. Cc1ccc2nc(-c3ccc4nc(-c5ccc(NC(=O)c6ccccc6)cc5)sc4c3)sc2c1S(=O)(=O)O
3. CN1CCN(Cc2cc(CN3CCN(C)CC3)c(O)c(=O)c(CN3CCN(C)CC3)c2)CC1 [Compound 4, reference compound]

2.6
11
19

# per-item lookup of IC50; items listed below
1. Cc1ccc2nc(-c3ccc4nc(-c5ccc(NC(=O)c6ccc(C(F)(F)F)cc6)cc5)sc4c3)sc2c1S(=O)(=O)O
2. Cc1ccc2nc(-c3ccc4nc(-c5ccc(NC(=O)c6c(F)cccc6C(F)(F)F)cc5)sc4c3)sc2c1S(=O)(=O)O
3. Cc1ccc2nc(-c3ccc4nc(-c5ccc(N)cc5)sc4c3)sc2c1S(=O)(=O)O
4. Cc1c2ccncc2c(C)c2c1[nH]c1ccccc12 [ellipticine, reference compound]
5. Cc1ccc2nc(-c3ccc4nc(-c5ccc(NC(=O)c6ccc(N)cc6)cc5)sc4c3)sc2c1S(=O)(=O)O
6. Cc1ccc(C(=O)Nc2ccc(-c3nc4ccc(-c5nc6ccc(C)c(S(=O)(=O)O)c6s5)cc4s3)cc2)cc1
7. Cc1ccc2nc(-c3ccc4nc(-c5ccc(NC(=O)c6ccc(F)cc6)cc5)sc4c3)sc2c1S(=O)(=O)O.N
8. Cc1ccc2nc(-c3ccc4nc(-c5ccc6nc(-c7ccc(N)cc7)sc6c5)sc4c3)sc2c1S(=O)(=O)O

1. 1.8
2. 17
3. 49
4. 5.6
5. 10
6. 3.3
7. 5.2
8. 0.9

# per-item lookup of IC50; items listed below
1. Cc1ccc2nc(-c3ccc4nc(-c5ccc(NC(=O)c6cc(F)ccc6C(F)(F)F)cc5)sc4c3)sc2c1S(=O)(=O)O
2. Cc1ccc2nc(-c3ccc4nc(-c5ccc(NC(=O)c6ccc(C(C)(C)C)cc6)cc5)sc4c3)sc2c1S(=O)(=O)O

1: 19; 2: 8.2

###

Assignment: determine reported Inh. (%) (Inhibition) for the given molecules.
assayedTarget: HCV NS3 helicase NS3h_1b(con1) (Hepatitis C virus genotype 1b, UniProt Q9WMX2)
Construct: truncated C-terminally His-tagged NS3 proteins lacking the N-terminal protease, called NS3h; His-tag (C); made in house
testSummary: MBHA screen of NCI mechanistic set library at 20 μM (percent inhibition, compound interference)
Format: biochemical
testSettings: compounds at 20 μM, MBHA with DNA substrate; calculated from Equation 1
Answers are plain numbers, in %.

See these solved cases before continuing.
C[C@@H](N)C(=O)NC(CO)C(O)C(N)C=O.Cl (stereo partly shown): 1.1
CCCCCn1cc2c3c(cccc31)C1C=C(C)CN(C)[C@@H]1C2.Cc1ccc(C(=O)OC(C(=O)O)C(OC(=O)c2ccc(C)cc2)C(=O)O)cc1 (stereo not shown): −19.1
COc1ccc(C(=O)/C(Br)=C\C(=O)O)cc1: −9.5

# per-item lookup of Inh. (%) (Inhibition); items listed below
1. O=S1(=O)CCN(c2ccccc2CC(c2c[nH]c3ccccc23)c2c[nH]c3ccccc23)CC1
2. Cl.Nc1ccc2cc3ccc(N)cc3nc2c1
3. Nc1ncnc2c1ncn2[C@@H]1O[C@H](CO)C[C@H]1O

−8.9
14.1
−0.8

###

Assignment: determine reported Int.* (Ratio) (Interference) for the given compounds.
assayedTarget: HCV NS3 helicase NS3h_1b(con1) (Hepatitis C virus genotype 1b, UniProt Q9WMX2)
Construct: truncated C-terminally His-tagged NS3 proteins lacking the N-terminal protease, called NS3h; His-tag (C); made in house
testSummary: MBHA screen of NCI mechanistic set library at 20 μM (percent inhibition, compound interference)
Format: biochemical
testSettings: compounds at 20 μM, MBHA with DNA substrate; assay interference calculated with Equation 2
Procedure: All molecular beacon-based helicase assays (MBHAs) were performed according to known methods (Belon & Frick (2008) supra; Belon & Frick (2009) supra). […] Fluorescence was read before ATP (F0) addition and 30 minutes after ATP was added to 1 mM (F30) using a Tecan Infinite M200 fluorescence microplate reader with excitation and emission wavelengths set to 643 and 670 nm, respectively. […]
Answers are plain numbers, in Ratio.

See these solved cases before continuing.
C[C@@H]1C[C@H]2CC[C@H](O2)[C@H](C)C(=O)O[C@@H](C)C[C@@H]2CC[C@@H](O2)[C@@H](C)C(=O)O[C@H](C)C[C@H]2CC[C@H](O2)[C@H](C)C(=O)O[C@@H](C)C[C@@H]2CC[C@@H](O2)[C@@H](C)C(=O)O1: 0.83
CCN(CC)CCOc1ccccc1/C=C/c1noc2ccccc12.Cl: 0.97
CCOc1ccccc1NC(=O)CC1Sc2ccccc2NC1=O (stereo not shown): 0.91
NC(=O)c1cn(C2OC(CO)C(O)C2O)c2ncnc(N)c12 (stereo not shown): 0.92
N.N.[Cl][Pt][Cl]: 0.83

# per-item lookup of Int.* (Ratio) (Interference); items listed below
1. CCOC(=O)Nc1nc2ccc(Cn3cccc3)cc2[nH]1
2. COc1cccc2c1C(=O)c1c(O)c3c(c(O)c1C2=O)C[C@@](O)(C(C)=O)C[C@@H]3O[C@H]1C[C@H](N(Cc2ccccc2)Cc2ccccc2)[C@H](O)[C@H](C)O1.Cl

1.14
0.88
